- experimentNotes: Ascending single oral dose pharmacokinetic study of isovaleramide (oral solution) in healthy subjects
- Type: in vivo, human
- conditionInfo: human, blood; oral, 1200 mg; read-out: initial maximum blood concentration (Cmax)
measuredEndpoint: Cmax

stdin: State the recorded Cmax for this entry: CC(C)CC(N)=O [Isovaleramide]
stdout: ~27000 ng/mL

---

- experimentNotes: Ascending single oral dose pharmacokinetic study of isovaleramide (oral solution) in healthy subjects
- Type: in vivo, human
- conditionInfo: human, plasma; male humans, oral, 400 mg; geometric mean; read-out: Cmax
measuredEndpoint: Cmax (ng/mL)
One number for each entry, in ng/mL.

stdin: State the recorded Cmax for this entry: CC(C)CC(N)=O [Isovaleramide]
stdout: 6840

---

- experimentNotes: Ascending single oral dose pharmacokinetic study of isovaleramide (oral solution) in healthy subjects
- Format: in vivo, human
- conditionInfo: human, plasma; male humans, oral, 200 mg; geometric mean; read-out: Cmax
measuredEndpoint: Cmax (ng/mL)
Give bare numbers, in ng/mL.

stdin: State the recorded Cmax for this entry: CC(C)CC(N)=O [Isovaleramide]
stdout: 3320

---

- experimentNotes: Ascending single oral dose pharmacokinetic study of isovaleramide (oral solution) in healthy subjects
- Type: in vivo, human
- conditionInfo: human, plasma; male humans, oral, 800 mg; arithmetic mean
- Description: Isovaleramide (NPS 1776) was orally administered in a double-blind, placebo-controlled, ascending single dose study conducted in two groups of healthy young male Caucasian subjects and one group of healthy young female Caucasian subjects to investigate the safety, tolerability, pharmacodynamics and pharmacokinetics of the drug. Various amounts of the drug were dissolved in 250 mL of a flavored soft drink (powdered soft drink diluted in mineral water) and administered as an oral solution. […]
measuredEndpoint: CL/F

stdin: State the recorded CL/F for this entry: CC(C)CC(N)=O [Isovaleramide]
stdout: 2.73 mL/min/kg

---

- experimentNotes: Ascending single oral dose pharmacokinetic study of isovaleramide (oral solution) in healthy subjects
- Assay type: in vivo, human
- conditionInfo: human, plasma; male humans, oral, 1200 mg; harmonic mean; read-out: t1/2 (converted)
- Method: Isovaleramide (NPS 1776) was orally administered in a double-blind, placebo-controlled, ascending single dose study conducted in two groups of healthy young male Caucasian subjects and one group of healthy young female Caucasian subjects to investigate the safety, tolerability, pharmacodynamics and pharmacokinetics of the drug. Various amounts of the drug were dissolved in 250 mL of a flavored soft drink (powdered soft drink diluted in mineral water) and administered as an oral solution. […]
measuredEndpoint: half-life (h)
Numbers only, in h.

stdin: State the recorded half-life for this entry: CC(C)CC(N)=O [Isovaleramide]
stdout: 2.43

---

- experimentNotes: Ascending single oral dose pharmacokinetic study of isovaleramide (oral solution) in healthy subjects
- Format: in vivo, human
- conditionInfo: human, plasma; male humans, oral, 1200 mg; geometric mean; read-out: Cmax
measuredEndpoint: Cmax (ng/mL)
Numbers only, in ng/mL.

stdin: State the recorded Cmax for this entry: CC(C)CC(N)=O [Isovaleramide]
stdout: 27900

---

- experimentNotes: Ascending single oral dose pharmacokinetic study of isovaleramide (oral solution) in healthy subjects
- Format: in vivo, human
- conditionInfo: human, plasma; male humans, oral, 100 mg; harmonic mean; read-out: t1/2 (converted)
measuredEndpoint: half-life (h)
Answers are plain numbers, in h.

stdin: State the recorded half-life for this entry: CC(C)CC(N)=O [Isovaleramide]
stdout: 2.7

---

- experimentNotes: Ascending single oral dose pharmacokinetic study of isovaleramide (oral solution) in healthy subjects
- Assay type: in vivo, human
- conditionInfo: human, plasma; male humans, oral, 200 mg; harmonic mean; read-out: t1/2 (converted)
measuredEndpoint: half-life (h)
Answers are plain numbers, in h.

stdin: State the recorded half-life for this entry: CC(C)CC(N)=O [Isovaleramide]
stdout: 2.61

---

- experimentNotes: Ascending single oral dose pharmacokinetic study of isovaleramide (oral solution) in healthy subjects
- Type: in vivo, human
- conditionInfo: human, plasma; male humans, oral, 800 mg; geometric mean; read-out: Cmax
measuredEndpoint: Cmax (ng/mL)
Numbers only, in ng/mL.

stdin: State the recorded Cmax for this entry: CC(C)CC(N)=O [Isovaleramide]
stdout: 16400

---

- experimentNotes: Ascending single oral dose pharmacokinetic study of isovaleramide (oral solution) in healthy subjects
- Type: in vivo, human
- conditionInfo: human, plasma; male humans, oral, 100 mg; geometric mean; read-out: Cmax
measuredEndpoint: Cmax (ng/mL)
Answers are plain numbers, in ng/mL.

stdin: State the recorded Cmax for this entry: CC(C)CC(N)=O [Isovaleramide]
stdout: 1510

---

- experimentNotes: Ascending single oral dose pharmacokinetic study of isovaleramide (oral solution) in healthy subjects
- Assay type: in vivo, human
- conditionInfo: human, plasma; humans, oral, no sustained-release formulation, doses 100 to 1600 mg; read-out: half-life (converted)
measuredEndpoint: half-life

stdin: State the recorded half-life for this entry: CC(C)CC(N)=O [Isovaleramide]
stdout: ~2.5 h

---

- experimentNotes: Ascending single oral dose pharmacokinetic study of isovaleramide (oral solution) in healthy subjects
- Assay type: in vivo, human
- conditionInfo: human, plasma; male humans, oral, 200 mg; arithmetic mean
measuredEndpoint: CL/F (mL/min/kg)
One number for each entry, in mL/min/kg.

stdin: State the recorded CL/F for this entry: CC(C)CC(N)=O [Isovaleramide]
stdout: 3.08

---

- experimentNotes: Ascending single oral dose pharmacokinetic study of isovaleramide (oral solution) in healthy subjects
- Type: in vivo, human
- conditionInfo: female, human, plasma; females, oral, 1200 mg; read-out: t½ (converted)
measuredEndpoint: half-life (h)
Answers are plain numbers, in h.

stdin: State the recorded half-life for this entry: CC(C)CC(N)=O [Isovaleramide]
stdout: 1.89

---

- experimentNotes: Ascending single oral dose pharmacokinetic study of isovaleramide (oral solution) in healthy subjects
- Format: in vivo, human
- conditionInfo: human, plasma; male humans, oral, 1600 mg; harmonic mean; read-out: t1/2 (converted)
measuredEndpoint: half-life (h)
Answers are plain numbers, in h.

stdin: State the recorded half-life for this entry: CC(C)CC(N)=O [Isovaleramide]
stdout: 2.65
